Where these numbers come from: patent US8927500B2

Quick reference: pIC50 of the listed items.
- EXPERIMENTAL_TARGET: MDM2 (Homo sapiens, UniProt Q00987)
- Sequence (Q00987 1-125): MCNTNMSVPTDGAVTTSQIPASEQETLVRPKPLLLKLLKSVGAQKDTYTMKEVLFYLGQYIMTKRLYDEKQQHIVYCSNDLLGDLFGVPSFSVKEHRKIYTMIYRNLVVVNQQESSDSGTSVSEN
- MEASUREMENT_PROTOCOL: Competitive fluorescence polarization assay for MDM2
- Assay type: binding
- SETTINGS: competitive FP assay, MDM2; read-out: IC50 (MDM2)
pIC50: −log10 of the molar value. Where a SMILES comes first, the peptide text is derived from it. Bridges are numbered along the chain shown (N, C = ends). [ ]: non-standard residue; d: D form. R8 = C=CCCCCCC[C@@](C)(N)C(=O)O; Cba = N[C@@H](CC1CCC1)C(=O)O; hLeu = CC(C)CC[C@H](N)C(=O)O; S5 = C=CCCC[C@](C)(N)C(=O)O; Nle = CCCC[C@H](N)C(=O)O

Reference set, count: 4
* CC(=O)N[C@@H](CC(C)C)C(=O)N[C@H](C(=O)N[C@@H](Cc1ccccc1)C(=O)N[C@]1(C)CCCCCCC=CCCC[C@@](C)(C(=O)N[C@@H](CO)C(=O)N[C@H](C(=O)NCC(N)=O)C(C)C)NC(=O)[C@H](CC(C)C)NC(=O)[C@H](CCC(N)=O)NC(=O)[C@H](C)NC(=O)[C@H](Cc2c[nH]c3ccccc23)NC(=O)[C@H](Cc2ccc(O)cc2)NC(=O)[C@H](C(C)C)NC1=O)[C@@H](C)O (single isomer, unassigned) [compound 146] | > 8.00
* CCCC[C@H](NC(=O)[C@H](C)NC(=O)[C@H](C)NC(=O)[C@]1(C)CCCC=CCCCCCC[C@@](C)(NC(=O)[C@H](Cc2ccccc2)NC(=O)[C@H](C)NC(=O)[C@H](CC(C)C)NC(C)=O)C(=O)N[C@@H](CCC(=O)O)C(=O)N[C@@H](Cc2ccc(O)cc2)C(=O)N[C@@H](Cc2c[nH]c3ccccc23)C(=O)N[C@@H](C)C(=O)N[C@@H](CCC(N)=O)C(=O)N[C@@H](CC(C)C)C(=O)N1)C(=O)N[C@@H](C)C(N)=O [compound 369] (Ac-LAF[R8]EYWAQL[S5]AA[Nle]A-NH2; staple 4-11) | 6.00 to 7.00
* CC(=O)N[C@@H](CC(C)C)C(=O)N[C@H](C(=O)N[C@@H](Cc1ccccc1)C(=O)N[C@]1(C)CCCCCCC=CCCC[C@@](C)(C(=O)N[C@@H](CO)C(=O)N[C@@H](C)C(=O)N[C@@H](CCC(C)C)C(N)=O)NC(=O)[C@H](CC(C)C)NC(=O)[C@H](CCC(N)=O)NC(=O)[C@H](C)NC(=O)[C@H](Cc2c[nH]c3ccccc23)NC(=O)[C@H](Cc2ccc(O)cc2)NC(=O)[C@H](C)NC1=O)[C@@H](C)O [compound 6] (Ac-LTF[R8]AYWAQL[S5]SA[hLeu]-NH2; staple 4-11) | 6.00 to 7.00
* CCCC[C@H](NC(=O)[C@H](C)NC(=O)[C@H](C)NC(=O)[C@]1(C)CCC/C=C/CCCCCC[C@@](C)(NC(=O)[C@H](Cc2ccccc2)NC(=O)[C@@H](NC(=O)[C@H](CC(C)C)NC(C)=O)[C@@H](C)O)C(=O)N[C@@H](C)C(=O)N[C@@H](Cc2ccc(O)cc2)C(=O)N[C@@H](Cc2c[nH]c3ccccc23)C(=O)N[C@@H](C)C(=O)N[C@@H](CCC(N)=O)C(=O)N[C@@H](CC(C)C)C(=O)N1)C(=O)N[C@@H](C)C(N)=O [compound 69] | 7.00 to 8.00

// query So what's the measured pIC50 for this one? CC(=O)N[C@@H](CC(C)C)C(=O)N[C@H](C(=O)N[C@@H](Cc1ccccc1)C(=O)N[C@]1(C)CCCCCCC=CCCC[C@@](C)(C(=O)N[C@@H](C)C(=O)N[C@@H](C)C(=O)N[C@@H](C)C(=O)N[C@H](C)C(N)=O)NC(=O)[C@H](CC(C)C)NC(=O)[C@H](CCC(N)=O)NC(=O)[C@H](C)NC(=O)[C@H](Cc2c[nH]c3ccccc23)NC(=O)[C@H](Cc2ccc(O)cc2)NC(=O)[C@H](C)NC1=O)[C@@H](C)O (single isomer, unassigned) [compound 230]
// result > 8.00

// query So what's the measured pIC50 for this one? CC(=O)N[C@@H](CCCNC(=N)N)C(=O)N[C@H](C(=O)N[C@@H](Cc1ccccc1)C(=O)N[C@]1(C)CCCCCCC=CCCC[C@@](C)(C(=O)N[C@@H](CO)C(=O)N[C@@H](C)C(=O)N[C@@H](C)C(N)=O)NC(=O)[C@H](CC2CCC2)NC(=O)[C@H](CCC(N)=O)NC(=O)[C@H](C)NC(=O)[C@H](Cc2c[nH]c3ccccc23)NC(=O)[C@H](Cc2ccc(O)cc2)NC(=O)[C@H](CCC(=O)O)NC1=O)[C@@H](C)O [compound 360] (Ac-RTF[R8]EYWAQ[Cba][S5]SAA-NH2; staple 4-11)
// result > 8.00

// query So what's the measured pIC50 for this one? CC[C@H](C)[C@H](NC(C)=O)C(=O)N[C@H](C(=O)N[C@@H](Cc1ccccc1)C(=O)N[C@]1(C)CCCCCCC=CCCC[C@@](C)(C(=O)N[C@@H](C)C(=O)N[C@@H](Cc2c[nH]cn2)C(=O)N[C@@H](Cc2ccccc2)C(=O)N[C@@H](C)C(N)=O)NC(=O)[C@H](CC(C)C)NC(=O)[C@H](CCC(N)=O)NC(=O)[C@H](C(C)C)NC(=O)[C@H](Cc2c[nH]c3ccccc23)NC(=O)[C@H](Cc2ccc(O)cc2)NC(=O)[C@H](CCC(=O)O)NC1=O)[C@@H](C)O [compound 192] (Ac-ITF[R8]EYWVQL[S5]AHFA-NH2; staple 4-11)
// result 7.00 to 8.00

// query So what's the measured pIC50 for this one? CCCC[C@H](NC(=O)[C@H](C)NC(=O)[C@H](C)NC(=O)[C@]1(C)CCCC=CCCCCCC[C@@](C)(NC(=O)[C@H](Cc2ccccc2)NC(=O)[C@@H](NC(=O)[C@H](CC(C)C)NC(C)=O)[C@@H](C)O)C(=O)N[C@@H](C)C(=O)N[C@@H](Cc2ccc(O)cc2)C(=O)N[C@@H](Cc2c[nH]c3ccccc23)C(=O)N[C@@H](C)C(=O)N[C@@H](CCC(N)=O)C(=O)N[C@@H](CCC(C)C)C(=O)N1)C(=O)N[C@@H](C)C(=O)N[C@@H](C)C(N)=O [compound 323]
// result 7.00 to 8.00

// query So what's the measured pIC50 for this one? CCCC[C@H](NC(=O)C(C)(C)NC(=O)[C@H](C)NC(=O)[C@]1(C)CCCC=CCCCCCC[C@@](C)(NC(=O)[C@H](Cc2ccccc2)NC(=O)[C@@H](NC(=O)[C@H](CC(C)C)NC(C)=O)[C@@H](C)O)C(=O)N[C@@H](C)C(=O)N[C@@H](Cc2ccc(O)cc2)C(=O)N[C@@H](Cc2c[nH]c3ccccc23)C(=O)N[C@@H](C)C(=O)N[C@@H](CCC(N)=O)C(=O)N[C@@H](CC(C)C)C(=O)N1)C(=O)N[C@@H](C)C(N)=O (single isomer, unassigned) [compound 392]
// result 7.00 to 8.00
